Observable: melting point

CSc1nc(C)c(CC(=O)O)s1 ... 146 to 148 °C
O=C(O)c1cc2c(s1)CCC2 ... 199 to 201 °C
COCCCOc1cc(C)ccc1C#N ... 67 to 69 °C
CC(C)CC(N)c1nc(-c2nnc[nH]2)no1 (centres undefined) ... 203 to 205 °C
COc1cccc(CSCC(N)C(=O)O)c1 (centres undefined) ... 194 to 196 °C

For reference, reported melting point for `Cc1noc(C)c1CCC(=O)O` stands at 109 to 111 °C

// melting point lookup, compound = `NC(=O)NCc1ccc(N)cc1` , result: 159 to 161 °C

Value of melting point reported for the compound CC1C(=O)NCCN1C(=O)c1ccco1 (centres undefined) is 149 to 151 °C

Short answer for `O=C(Nc1ccc(S(=O)(=O)Cl)cc1)c1ccc(F)cc1` : melting point was 149 to 151 °C

For reference, reported melting point for O=C1NC(=O)C2(CCSC2)N1 (centres undefined) stands at 243 to 245 °C

Value of melting point reported for the compound `CS(=O)(=O)Cc1ccc(S(=O)(=O)Cl)cc1` is 127 to 129 °C

get_value(item= `NS(=O)(=O)c1cccnc1` , readout=melting point) returns 109 to 111 °C

The measured melting point associated with `Cc1ccc(C#N)c(N2CCCC2)n1` reads 74 to 76 °C

FYI, the data here is from a melting point compilation (Tetko et al.).
